EC50: recorded values
biological target: Amyloid-beta precursor protein (Homo sapiens); experiment: Inhibition of QD-labeled amyloid beta (1 to 42) (unknown origin) aggregation after 24 hrs by inverted fluorescence microscopic method
Sequence (P05067 whole entry): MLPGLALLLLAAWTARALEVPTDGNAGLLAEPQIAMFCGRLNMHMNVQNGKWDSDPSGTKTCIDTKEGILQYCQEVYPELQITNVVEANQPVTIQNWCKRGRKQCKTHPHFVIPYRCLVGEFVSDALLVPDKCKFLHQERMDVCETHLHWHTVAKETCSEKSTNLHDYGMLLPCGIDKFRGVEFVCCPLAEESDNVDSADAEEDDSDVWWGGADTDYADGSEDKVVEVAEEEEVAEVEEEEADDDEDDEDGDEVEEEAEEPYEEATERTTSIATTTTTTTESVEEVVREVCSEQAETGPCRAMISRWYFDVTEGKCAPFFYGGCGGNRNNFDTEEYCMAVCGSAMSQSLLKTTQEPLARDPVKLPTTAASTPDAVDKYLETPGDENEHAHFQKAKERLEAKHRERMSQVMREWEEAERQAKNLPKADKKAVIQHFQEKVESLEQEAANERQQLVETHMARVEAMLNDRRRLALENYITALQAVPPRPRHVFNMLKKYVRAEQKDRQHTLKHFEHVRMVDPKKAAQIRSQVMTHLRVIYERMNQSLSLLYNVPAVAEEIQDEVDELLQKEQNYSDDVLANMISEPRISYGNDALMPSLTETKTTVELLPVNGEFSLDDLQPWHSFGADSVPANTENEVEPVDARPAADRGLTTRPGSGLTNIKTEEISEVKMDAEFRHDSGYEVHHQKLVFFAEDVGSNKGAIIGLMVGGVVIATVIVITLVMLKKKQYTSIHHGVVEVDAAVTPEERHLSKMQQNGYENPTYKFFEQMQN
Response body: numeric value in µM, unit text excluded.

Record excerpt, results attached:
O=C(O)/C=C/c1ccc(O)c(O)c1 :: 216
O=C(CCc1ccccc1)OCCc1ccccc1 :: 4540
O=C(/C=C/c1ccccc1)OCCc1ccc(O)c(O)c1 :: 7.95

// moving on: another record for EC50
Using the record for `CCCCCOC(=O)/C=C/c1ccc(O)c(O)c1` , report its EC50.
2.58

Data credit: ChEMBL document CHEMBL4130369
